tested on: ATP; assay: switch fluorescence ratio, 500 uM ATP over buffer (Cy3 cluster intensity, sum of 5 cycles each) (fold (ratio)); higher = stronger signal-on switching upon ATP binding; sequences stand for … in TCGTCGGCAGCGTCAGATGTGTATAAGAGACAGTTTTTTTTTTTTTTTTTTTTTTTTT…TC; conditions: aptamer strand: ATP DNA aptamer (quencher-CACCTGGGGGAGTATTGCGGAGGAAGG + anchor), 100 nM annealed; ATP concentration: 500 uM;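 further: ATP exposure 15 min at 22 °C before imaging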
observedProperty: switch fluorescence ratio
No unit in the answer, only the number.

Would you please look over these solved cases?
AGAGACATGC: 0.923
TTGCTCGTCG: 1.04
GAGGGGGCTA: 1.02
GGCATATGTT: 1
GCGATTTGTG: 1.01

**Query** Which switch fluorescence ratio reading was recorded for the sequence `CCACCGGGCC` ?
**Result** 1.36

**Query** I'd like to know its switch fluorescence ratio. The sequence in question is `GGGGTATTGT`
**Result** 1.01

**Query** Endpoint output: switch fluorescence ratio of `GCACAATTAG` . Value?
**Result** 1.04

**Query** Item `GACTGTCGAG` has what recorded switch fluorescence ratio?
**Result** 0.991

**Query** What value of switch fluorescence ratio has been recorded for this entry: `ACAGTTAAGT`
**Result** 1.04

**Query** Which switch fluorescence ratio value is on record for `TCAAACAGTG` ?
**Result** 1.02

**Query** May I ask what switch fluorescence ratio has been recorded for `TTCAGGCATG` ?
**Result** 0.999
